run_description: binders of probe aFSTL3 on microarray, primary screen, stem cell growth factor project, biochemical, small-molecule microarray, fluorescence 635/667 (AID 1064);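 note: measures binding of the biotinylated anti-FSTL3 antibody to printed compounds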
condition_context: higher = more signal
Record YES whenever composite z-score is at -0.2 or higher; record NO when lower.

Past entries and their recorded results:
CC(C)N1C(=O)c2ccccc2[C@@H](C(=O)NCc2ccccc2)[C@@H]1c1ccc(CO)cc1 = YES
C[N+](C)(C)CCCCNC(=O)[C@@H]1C[C@@H]2C(=O)NCC(=O)N2[C@@H]1c1cccc(OCCO)c1 = NO
COc1ccc([Si](C)(C)[C@H]2[C@H](CC(=O)N3Cc4ccccc4C[C@H]3CO)O[C@@]3(C(=O)N(Cc4cccc(N5C(=O)COc6ccccc65)c4)c4ccccc43)[C@@H]2C)cc1 = YES
Cc1ccc(N2C(=O)c3ccccc3[C@](C)(C(=O)NC3CC3)[C@@H]2c2ccc(CO)cc2)nc1 = YES
NC(=O)NCC#Cc1ccc2c(c1)[C@]1(C(=O)N2)[C@H](c2ccc(OCCO)cc2)N2[C@H](c3ccccc3)[C@H](c3ccccc3)OC(=O)[C@H]2[C@@H]1C(=O)Nc1nc2ccccc2s1 = YES

Data request: Please tell me: is the compound O=C1O[C@H](c2ccccc2)[C@H](c2ccccc2)N2[C@H]1[C@@H](C(=O)Nc1nc3ccccc3s1)[C@]1(C(=O)Nc3ccc(C#CCCO)cc31)[C@H]2c1ccccc1OCCO at or over -0.2 in terms of composite z-score?
Data returned: NO

Data request: Hello, I need to know if CC(C)(C)OC(=O)CC[C@@]1(C(=O)NCc2ccccc2)N=C(c2ccc(OCCCO)cc2)O[C@@H]1c1ccccc1CN=[N+]=[N-] has measured composite z-score not below -0.2. Thanks!
Data returned: YES

Data request: Please tell me: is the compound O=C(N1CCCCC1)[C@@]1(Cc2ccccc2)N=C(c2ccc(OCCCO)cc2)O[C@H]1c1ccccc1 at or over -0.2 in terms of composite z-score?
Data returned: YES

Data request: Entry COC(=O)C(CC#Cc1ccc2c(c1)[C@]1(C(=O)N2)[C@H](C(N)=O)[C@H]2C(=O)O[C@H](c3ccccc3)[C@H](c3ccccc3)N2[C@@H]1c1ccc(O)cc1)C(=O)OC : is its composite z-score no less than -0.2?
Data returned: NO

Data request: Hello, I need to know if CC(=O)OC(C/C=C\B1OC(C)(C)C(C)(C)O1)c1ccccc1 (centres undefined) has measured composite z-score not below -0.2. Thanks!
Data returned: YES
